Biological target: TLR10 (Homo sapiens, UniProt Q9BXR5)
Sequence (Q9BXR5 20-576): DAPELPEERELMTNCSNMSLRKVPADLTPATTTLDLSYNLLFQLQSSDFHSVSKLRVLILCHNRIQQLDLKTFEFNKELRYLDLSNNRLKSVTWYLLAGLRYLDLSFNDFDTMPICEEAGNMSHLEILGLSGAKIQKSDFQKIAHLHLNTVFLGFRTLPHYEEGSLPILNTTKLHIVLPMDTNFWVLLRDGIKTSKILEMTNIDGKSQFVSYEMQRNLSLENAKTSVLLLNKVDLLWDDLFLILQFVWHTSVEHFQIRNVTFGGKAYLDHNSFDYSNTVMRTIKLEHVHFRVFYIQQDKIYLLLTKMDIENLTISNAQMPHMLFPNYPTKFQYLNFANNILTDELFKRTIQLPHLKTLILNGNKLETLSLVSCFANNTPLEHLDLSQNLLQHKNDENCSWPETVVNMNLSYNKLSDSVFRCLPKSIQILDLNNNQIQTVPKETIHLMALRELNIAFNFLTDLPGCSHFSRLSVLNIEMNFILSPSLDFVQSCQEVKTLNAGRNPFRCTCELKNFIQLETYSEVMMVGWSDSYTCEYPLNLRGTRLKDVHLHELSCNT
Assay: mRNA display affinity selection against TLR10, NGS abundance
Assay type: binding
Parameters: Chimera protein (extracellular domain, amino acid 20-576;); Fc (chimera); purchased R&D system #6619-TR-050
Conditions: TLR10 selection pulldown (+); Top100 selection hits, NGS
In this section we review reported Library fraction values for a set of sequences.

>>> df
   recordsequence  valuereported
0      SIEGMHVVIV        0.00022
1    STLFFMFQGIRG        0.00019

Now for the sequence whose Library fraction we want.
Sample `MIRMDRLRVL` — what was its Library fraction? 0.00023

###

Molecular target: TLR10 (Homo sapiens, UniProt Q9BXR5)
Sequence (Q9BXR5 20-576): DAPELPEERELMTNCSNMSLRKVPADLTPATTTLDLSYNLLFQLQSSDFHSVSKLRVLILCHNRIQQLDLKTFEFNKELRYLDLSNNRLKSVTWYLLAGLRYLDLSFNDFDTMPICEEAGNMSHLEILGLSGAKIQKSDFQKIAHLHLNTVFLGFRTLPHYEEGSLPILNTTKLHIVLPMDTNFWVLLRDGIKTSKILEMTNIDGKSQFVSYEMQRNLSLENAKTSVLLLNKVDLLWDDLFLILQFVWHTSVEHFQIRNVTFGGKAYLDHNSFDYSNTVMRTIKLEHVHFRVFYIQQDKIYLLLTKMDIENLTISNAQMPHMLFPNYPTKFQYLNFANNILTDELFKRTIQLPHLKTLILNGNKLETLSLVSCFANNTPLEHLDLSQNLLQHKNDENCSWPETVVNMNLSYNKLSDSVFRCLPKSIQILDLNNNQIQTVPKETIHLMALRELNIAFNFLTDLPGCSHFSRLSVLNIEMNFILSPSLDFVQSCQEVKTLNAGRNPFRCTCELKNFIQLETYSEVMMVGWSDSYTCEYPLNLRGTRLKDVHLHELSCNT
Experiment: mRNA display affinity selection against TLR10, NGS abundance
Format: binding
Design: Chimera protein (extracellular domain, amino acid 20-576;); Fc (chimera); purchased R&D system #6619-TR-050
Conditions: TLR10 selection pulldown (-); Top100 selection hits, NGS
attributeMeasured: Library fraction
The reply should be a number, written without any unit.

Use the examples below as a reference point.
>>> print(df.to_string())
   recordsequence  attributemeasured  valuereported
0      CNPYRGNIGW   Library fraction          0.016
1    ALLIKQTNMLYC   Library fraction          0.018
2      RIETRCYVLH   Library fraction         0.0006

What does the data say about its Library fraction? Entry: `RNPYSGNIAI` 0.00067

Fill blank: measured Library fraction of the sequence `IGLVRVVSS` is ____. 0.00658

Data provenance: paper PMC10683472
